# Test system: Rattus norvegicus
# assay comment: Terminal half life in Sprague-Dawley rat at 1 mg/kg, iv
# Format: ADME, organism-based
# cond: in vivo
outcome measure: beta t1/2 (h)
The answer is to be given in h; state only the numeric part.

Prompt line: Consider the compound COc1cc2c(cc1OC(C)C)[C@H](c1ccc(Cl)cc1)N(c1ccc(N(C)C[C@H]3CC[C@H](N4CCN(C)C(=O)C4)CC3)cc1)C(=O)C2 and give its measured beta t1/2.
Response line: 12.1

###

# tested system: Apoptosis regulator Bcl-2 (Homo sapiens, UniProt P10415)
# Sequence (P10415 whole entry): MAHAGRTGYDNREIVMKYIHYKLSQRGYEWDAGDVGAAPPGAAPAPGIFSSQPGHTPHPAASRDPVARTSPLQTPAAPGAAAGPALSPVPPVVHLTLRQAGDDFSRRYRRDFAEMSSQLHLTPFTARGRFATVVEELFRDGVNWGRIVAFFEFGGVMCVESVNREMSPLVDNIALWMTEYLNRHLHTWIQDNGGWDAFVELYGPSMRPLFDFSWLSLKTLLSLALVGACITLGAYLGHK
# assay comment: Inhibition of Bcl2 (unknown origin) assessed as inhibition of Bcl2-Bad interaction by TR-FRET assay
outcome measure: IC50

Prompt line: Hello, I am looking for reported IC50 with Apoptosis regulator Bcl-2 (Homo sapiens, UniProt P10415) for COc1cc2c(cc1OC(C)C)[C@H](c1ccc(Cl)cc1)N(c1ccc(N(C)C[C@H]3CC[C@H](N4CCN(C)C(=O)C4)CC3)cc1)C(=O)C2 . Could you help?
Response line: > 50 µM

###

# assay comment: Half life in rat liver microsomes
# Assay type: ADME
outcome measure: half-life (h)
The answer is to be given in h; state only the numeric part.

Prompt line: Consider the molecule CC[C@@H](C)Oc1cc2c(cc1OC)CC(=O)N(c1ccc(N(C)C[C@H]3CC[C@H](N(C)C)CC3)cc1)[C@H]2c1ccc(Cl)cc1 and give its measured half-life.
Response line: 4.1

###

# assay comment: Volume of distribution at steady state in cynomolgus monkey at 0.1 mg/kg, iv
# Type: ADME, organism-based, Macaca fascicularis
# cond: in vivo, read-out: Vdss
outcome measure: Vd (L/kg)
The answer is to be given in L/kg; state only the numeric part.

Prompt line: Consider the molecule COc1cc2c(cc1OC(C)C)[C@H](c1ccc(Cl)cc1)N(c1ccc(N(C)C[C@H]3CC[C@H](N4CCN(C)C(=O)C4)CC3)cc1)C(=O)C2 [CGM-097] and give its measured Vd.
Response line: 2

###

# assay comment: AUC (0 to 24 hrs) in human SJSA1 cells xenografted rat assessed as mouse survival at 70 mg/kg, po dosed 3 times per week
# Format: ADME, organism-based, SJSA-1
# Design: time < 24 hr, dose 70 mg/kg, route oral
# cond: in vivo
outcome measure: AUC at 24 h (µM·h)
The answer is to be given in µM·h; state only the numeric part.

Prompt line: Consider the compound COc1cc2c(cc1OC(C)C)[C@H](c1ccc(Cl)cc1)N(c1ccc(N(C)C[C@H]3CC[C@H](N4CCN(C)C(=O)C4)CC3)cc1)C(=O)C2 and give its measured AUC at 24 h.
Response line: 616

###

# assay comment: AUC (0 to 48 hrs) in human SJSA1 cells xenografted rat assessed as mouse survival at 30 mg/kg, po dosed 3 times per week
# Format: ADME, organism-based, SJSA-1
# Design: time < 48 hr, dose 30 mg/kg, route oral
# cond: in vivo
outcome measure: AUC at 48 h (µM·h)
The answer is to be given in µM·h; state only the numeric part.

Prompt line: Consider the compound COc1cc2c(cc1OC(C)C)[C@H](c1ccc(Cl)cc1)N(c1ccc(N(C)C[C@H]3CC[C@H](N4CCN(C)C(=O)C4)CC3)cc1)C(=O)C2 and give its measured AUC at 48 h.
Response line: 381

###

Catalogue of IC50 readings, one per entry.
# tested system: Cytochrome P450 3A4 (Homo sapiens, UniProt P08684)
# Sequence (P08684 whole entry): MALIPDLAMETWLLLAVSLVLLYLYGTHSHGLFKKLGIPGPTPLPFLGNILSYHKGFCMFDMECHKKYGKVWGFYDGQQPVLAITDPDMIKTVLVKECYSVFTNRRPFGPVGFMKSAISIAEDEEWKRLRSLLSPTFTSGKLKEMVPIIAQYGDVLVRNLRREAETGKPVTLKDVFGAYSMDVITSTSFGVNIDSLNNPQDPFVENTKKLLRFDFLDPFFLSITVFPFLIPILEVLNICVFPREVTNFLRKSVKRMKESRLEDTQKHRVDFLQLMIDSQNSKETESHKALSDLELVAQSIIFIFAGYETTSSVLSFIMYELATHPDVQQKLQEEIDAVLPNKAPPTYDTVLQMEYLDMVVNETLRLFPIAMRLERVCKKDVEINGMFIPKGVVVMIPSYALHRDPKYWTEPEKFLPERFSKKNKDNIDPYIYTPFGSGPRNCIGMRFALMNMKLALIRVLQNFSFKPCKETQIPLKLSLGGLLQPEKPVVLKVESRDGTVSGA
# assay comment: Time dependent inhibition of CYP3A4 in human liver microsomes

Consider the worked cases shown below.
{"molecule": "COc1cc2c(cc1OC(C)C)[C@H](c1ccc(Cl)cc1)N(c1ccc(N(C)C[C@H]3CC[C@H](N4CCN(C)C(=O)C4)CC3)cn1)C(=O)C2", "result": "> 20 µM"}
{"molecule": "COc1cc2c(cc1OC(C)C)[C@H](c1ccc(Cl)cc1)N(c1ccc(N(C)C[C@H]3CC[C@H](N4CCN(C)C(=O)C4)CC3)nc1)C(=O)C2", "result": "> 20 µM"}

Prompt line: Consider the molecule COc1cc2c(cc1OC(C)C)[C@H](c1ccc(Cl)cc1)N(c1cnc(N(C)C[C@H]3CC[C@H](N4CCN(C)C(=O)C4)CC3)cn1)C(=O)C2 and give its measured IC50.
Response line: > 20 µM

Data credit: ChEMBL document CHEMBL3600357
